- Test system: Entamoeba histolytica
- PROTOCOL: Antiprotozoal activity against Entamoeba histolytica Hk-9 trophozoites after 70 hrs by resazurin-based spectrophotometric assay
- Assay type: functional, organism-based
- SETUP CONDITIONS: Hk-9, 70 h
pIC50: −log10 of the molar value.
Entry flag: T if pIC50 reaches 4; F if it does not.

[[record]]
smiles_string = "c1ccc2[nH]c(-c3ccc(OCCCCCCCCCCOc4ccc(-c5nc6ccccc6[nH]5)cc4)cc3)nc2c1"
classification = "T"

[[record]]
smiles_string = "c1ccc2[nH]c(-c3ccc(OCCOc4ccc(-c5nc6ccccc6[nH]5)cc4)cc3)nc2c1"
classification = "F"

[[record]]
smiles_string = "c1cc(OCCCCCCCOc2cccc(-c3nc4ccccc4[nH]3)c2)cc(-c2nc3ccccc3[nH]2)c1"
classification = "T"

[[record]]
smiles_string = "c1cc(OCCCCCCCCCOc2cccc(-c3nc4ccccc4[nH]3)c2)cc(-c2nc3ccccc3[nH]2)c1"
classification = "T"

[[record]]
smiles_string = "c1ccc2[nH]c(-c3ccc(OCCCOc4ccc(-c5nc6ccccc6[nH]5)cc4)cc3)nc2c1"
classification = "T"


----------
- PROTOCOL: Selectivity ratio of IC50 for rat L6 cells to IC50 for bloodstream form of Trypanosoma brucei rhodesiense STIB 900
- Assay type: ADME, cell-based
- SETUP CONDITIONS: read-out: Ratio IC50
MEASUREMENT KIND: selectivity ratio

[[record]]
smiles_string = "c1ccc2[nH]c(-c3ccc(OCCCCCCCCCOc4ccc(-c5nc6ccccc6[nH]5)cc4)cc3)nc2c1"
measurement_kind = "selectivity ratio"
endpoint_value = 123


----------
- PROTOCOL: Selectivity ratio of IC50 for rat L6 cells to IC50 for Plasmodium falciparum K1
- Assay type: ADME, cell-based
- SETUP CONDITIONS: read-out: Ratio IC50
MEASUREMENT KIND: selectivity ratio

[[record]]
smiles_string = "c1ccc(COc2ccc(-c3nc4ccccc4[nH]3)cc2)c(COc2ccc(-c3nc4ccccc4[nH]3)cc2)c1"
bound_type = "="
endpoint_value = 17

[[record]]
smiles_string = "c1ccc2[nH]c(-c3ccc(OCCCOc4ccc(-c5nc6ccccc6[nH]5)cc4)cc3)nc2c1"
bound_type = "="
endpoint_value = 13

[[record]]
smiles_string = "c1cc(COc2ccc(-c3nc4ccccc4[nH]3)cc2)cc(COc2ccc(-c3nc4ccccc4[nH]3)cc2)c1"
bound_type = ">"
endpoint_value = 450

[[record]]
smiles_string = "c1cc(OCCCCCOc2cccc(-c3nc4ccccc4[nH]3)c2)cc(-c2nc3ccccc3[nH]2)c1"
bound_type = "="
endpoint_value = 10

[[record]]
smiles_string = "c1cc(COc2cccc(-c3nc4ccccc4[nH]3)c2)cc(COc2cccc(-c3nc4ccccc4[nH]3)c2)c1"
bound_type = "="
endpoint_value = 198

[[record]]
smiles_string = "c1ccc2[nH]c(-c3ccc(OCCCCOc4ccc(-c5nc6ccccc6[nH]5)cc4)cc3)nc2c1"
bound_type = "="
endpoint_value = 18

[[record]]
smiles_string = "c1cc(OCc2ccc(COc3cccc(-c4nc5ccccc5[nH]4)c3)cc2)cc(-c2nc3ccccc3[nH]2)c1"
bound_type = "="
endpoint_value = 54

[[record]]
smiles_string = "c1ccc2[nH]c(-c3ccc(OCCCCCCCCCCOc4ccc(-c5nc6ccccc6[nH]5)cc4)cc3)nc2c1"
bound_type = "="
endpoint_value = 257


----------
Recorded selectivity ratio values for a group of compounds are listed next.
- PROTOCOL: Selectivity ratio of IC50 for rat L6 cells to IC50 for Plasmodium falciparum K1
- Format: ADME, cell-based
- SETUP CONDITIONS: read-out: Ratio IC50
MEASUREMENT KIND: selectivity ratio

[[record]]
smiles_string = "c1ccc2[nH]c(-c3ccc(OCCCCCCOc4ccc(-c5nc6ccccc6[nH]5)cc4)cc3)nc2c1"
endpoint_value = 40

[[record]]
smiles_string = "c1cc(OCCOc2cccc(-c3nc4ccccc4[nH]3)c2)cc(-c2nc3ccccc3[nH]2)c1"
endpoint_value = 2

[[record]]
smiles_string = "c1cc(OCCCCOc2cccc(-c3nc4ccccc4[nH]3)c2)cc(-c2nc3ccccc3[nH]2)c1"
endpoint_value = 92

[[record]]
smiles_string = "c1cc(OCCCCCCCOc2cccc(-c3nc4ccccc4[nH]3)c2)cc(-c2nc3ccccc3[nH]2)c1"
endpoint_value = 291

[[record]]
smiles_string = "c1cc(OCCCCCCCCCCOc2cccc(-c3nc4ccccc4[nH]3)c2)cc(-c2nc3ccccc3[nH]2)c1"
endpoint_value = 202

[[record]]
smiles_string = "c1ccc2[nH]c(-c3ccc(OCc4ccc(COc5ccc(-c6nc7ccccc7[nH]6)cc5)cc4)cc3)nc2c1"
endpoint_value = 70

[[record]]
smiles_string = "c1cc(OCOc2cccc(-c3nc4ccccc4[nH]3)c2)cc(-c2nc3ccccc3[nH]2)c1"
endpoint_value = 11

[[record]]
smiles_string = "c1ccc2[nH]c(-c3ccc(OCCCCCCCOc4ccc(-c5nc6ccccc6[nH]5)cc4)cc3)nc2c1"
endpoint_value = 208

